B1: TPR 5TU (parent)
chain: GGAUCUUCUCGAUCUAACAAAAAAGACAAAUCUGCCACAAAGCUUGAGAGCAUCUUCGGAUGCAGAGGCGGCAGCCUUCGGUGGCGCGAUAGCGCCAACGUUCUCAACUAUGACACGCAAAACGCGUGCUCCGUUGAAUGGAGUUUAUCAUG

- Variants of: B1
- protocol-text: polymerase ribozyme fitness, log enrichment relative to wild type (log ratio); higher = more active; in vitro selection for triplet polymerase activity
This sample holds only a part of the variants without activity.
Use -3 as the dividing line for polymerase ribozyme fitness (log ratio), with the line itself on the 1 (yes) side and lower values as 0 (no).

[[record]]
change = "A20G U33A U55G C87A G140C"
label_class = "0 (no)"

[[record]]
change = "A40C U55G G59C C75A U82G C96G U111G U148A A150C"
label_class = "0 (no)"

[[record]]
change = "U56G A60G G84A"
label_class = "1 (yes)"

[[record]]
change = "C43G G86A"
label_class = "0 (no)"

[[record]]
change = "A21C C32G C43U C57A G71U C85A G88C A91C A147U"
label_class = "0 (no)"

[[record]]
change = "C35A A41C C57U C85G"
label_class = "0 (no)"

[[record]]
change = "A24U C72U G84U C118U A142G"
label_class = "0 (no)"

[[record]]
change = "C36U G46A A64G G80C"
label_class = "0 (no)"

[[record]]
change = "C75U C85U A119G G143A A147C"
label_class = "0 (no)"

[[record]]
change = "C35A A60C A97G U145G"
label_class = "0 (no)"

[[record]]
change = "A16G G86U"
label_class = "1 (yes)"

[[record]]
change = "A19G G83C C87U U101G"
label_class = "0 (no)"

[[record]]
change = "A23U C87G A91G"
label_class = "0 (no)"

[[record]]
change = "G86U C118U A119G"
label_class = "0 (no)"

[[record]]
change = "C5G A23G A49U U77G G86A A137G"
label_class = "0 (no)"

[[record]]
change = "A37U U146G"
label_class = "1 (yes)"

[[record]]
change = "G11A A21U G83U G117U"
label_class = "1 (yes)"

[[record]]
change = "C8G C57A G84U C114U U148C A150C"
label_class = "0 (no)"

[[record]]
change = "C14A A16G U45A U55G U61A G65U G94C C96U U101G"
label_class = "0 (no)"

[[record]]
change = "A52C C75U C85G C95G"
label_class = "0 (no)"

[[record]]
change = "A22C A28U G62A G65C U90A C99U C108U C116G"
label_class = "0 (no)"

[[record]]
change = "A21U A23U A24C C54U G81A C85U A147C"
label_class = "0 (no)"

[[record]]
change = "C27A G50U C57U A60C C116G U146G A147C"
label_class = "0 (no)"

[[record]]
change = "G42U G50A C118U A122C"
label_class = "0 (no)"

[[record]]
change = "C14A A20U A21U U102G"
label_class = "0 (no)"

[[record]]
change = "A20U C87U"
label_class = "1 (yes)"

[[record]]
change = "C5U U7G A29C A49G G50C C76A C87U C131A G133A U145G"
label_class = "0 (no)"

[[record]]
change = "A12C A113G"
label_class = "1 (yes)"

[[record]]
change = "G59A C75U C85U U144A"
label_class = "1 (yes)"

[[record]]
change = "A28U C35U A91U C132U"
label_class = "0 (no)"

[[record]]
change = "G59U G81A C85G A106C"
label_class = "0 (no)"

[[record]]
change = "C35G U82A G94U G126A A138U"
label_class = "0 (no)"

[[record]]
change = "A21U A39C G58A G94C C125G U148G"
label_class = "0 (no)"

[[record]]
change = "A21G C85U"
label_class = "1 (yes)"

[[record]]
change = "A29C A37C A64G C87A C95G U146G"
label_class = "0 (no)"

[[record]]
change = "A19U C43U A73U C79U A106U A107C"
label_class = "0 (no)"

[[record]]
change = "A21C C57G"
label_class = "1 (yes)"

[[record]]
change = "C43U U61G G94U C116U U144G C149G"
label_class = "0 (no)"

[[record]]
change = "A19U G46A C51U A91G G124U U139A"
label_class = "0 (no)"

[[record]]
change = "G58C G68A"
label_class = "0 (no)"

[[record]]
change = "A20G G124U"
label_class = "1 (yes)"

[[record]]
change = "A89C G92U"
label_class = "1 (yes)"

[[record]]
change = "A20U A21G A30G C99A"
label_class = "0 (no)"

[[record]]
change = "A138C A142G"
label_class = "0 (no)"

[[record]]
change = "A49U C57U C93G C103G U144C"
label_class = "0 (no)"

[[record]]
change = "G59C C93U"
label_class = "1 (yes)"

[[record]]
change = "U6G A16U C18U G67C G88C"
label_class = "0 (no)"

[[record]]
change = "A24G C32A C38A U45A C57U A106U C118U"
label_class = "0 (no)"

[[record]]
change = "U31C A97G U135C U146C"
label_class = "1 (yes)"

[[record]]
change = "A12U C87U A120U"
label_class = "1 (yes)"

[[record]]
change = "U4A A19C A89U C96U A138G U146G"
label_class = "0 (no)"

[[record]]
change = "A23U A41G"
label_class = "0 (no)"

[[record]]
change = "A21C U61G C85U"
label_class = "1 (yes)"

[[record]]
change = "G84A A98G"
label_class = "1 (yes)"

[[record]]
change = "A73G G141A"
label_class = "1 (yes)"

[[record]]
change = "C27G A39G C93G G112A C129G"
label_class = "0 (no)"

[[record]]
change = "G48U A49C G68U G74A C76A G88U C116G"
label_class = "0 (no)"

[[record]]
change = "G58U C105U A106G C149U"
label_class = "1 (yes)"

[[record]]
change = "G42A G71A A91U A97U G100C"
label_class = "0 (no)"

[[record]]
change = "C10U C54U G71U C85A C96G G133C U145G G152A"
label_class = "0 (no)"

[[record]]
change = "A29C A37G G65C C75G U77A A97G C118U C123U"
label_class = "0 (no)"

[[record]]
change = "U55A A64G U135A"
label_class = "0 (no)"

[[record]]
change = "A73G C85U U102G G124A"
label_class = "0 (no)"

[[record]]
change = "C27U A37U C125U"
label_class = "0 (no)"

[[record]]
change = "A23C A60G C96A C118U"
label_class = "0 (no)"

